Target: human MDM4 protein (amino acids 2-185) (Homo sapiens, UniProt O15151)
Construct: human MDM4 protein (amino acids 2-185); made in house
Sequence (O15151 2-185): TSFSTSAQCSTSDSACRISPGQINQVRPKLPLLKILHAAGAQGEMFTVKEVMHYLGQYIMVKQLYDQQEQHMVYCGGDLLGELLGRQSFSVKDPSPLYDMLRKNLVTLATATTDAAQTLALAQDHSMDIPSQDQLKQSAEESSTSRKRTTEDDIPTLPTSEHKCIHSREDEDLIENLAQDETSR
Test: p53-MDM4 TR-FRET assay (p53-MDM4 Assay 1)
Format: binding
Conditions: 2.5 nM MDM4-biotinylated, 10 nM Cy5-p53 peptide; read-out: IC50 (μM) of p53-Hdm4 inhibition (TR-FRET) Assay 1
measurement type: log10 of IC50 (log10 of the value in µM)
# log10 transformed; quantity=IC50; unit=µM

Answered examples (3):
COc1cc2c(cc1OC(C)C)[C@H](c1ccc(Cl)cc1)N(c1ccc(C(C)(O)C3CCN(C=O)CC3)cc1)C(=O)C2 (stereo partly shown)
0.38
COc1cc2c(cc1OC(C)C)[C@H](c1ccc(Cl)cc1)N(c1ccc(C(C)(O)C3CN(S(C)(=O)=O)C3)cc1)C(=O)C2 (stereo partly shown)
1.28
COc1cc2c(cc1OC(C)C)[C@H](c1ccc(Cl)cc1)N(c1ccc([C@](C)(O)C3CCN(C)CC3)cc1)C(=O)C2 (single isomer, unassigned)
1.70

Given the compound COc1cc2c(cc1OC(C)C)[C@H](c1ccc(Cl)cc1)N(c1ccc(C(C)(O)C3CC4CCC(C3)N4S(C)(=O)=O)cc1)C(=O)C2 (stereo partly shown) and test system human MDM4 protein (amino acids 2-185) (Homo sapiens, UniProt O15151), the measured log10 of IC50 is 0.39

Given the compound COc1cc2c(cc1OC(C)C)[C@H](c1ccc(Cl)cc1)N(c1ccc(C(C)(O)C3CC[S+]([O-])CC3)cc1)C(=O)C2 (stereo partly shown) and test system human MDM4 protein (amino acids 2-185) (Homo sapiens, UniProt O15151), the measured log10 of IC50 is 0.92

Given the compound COc1cc2c(cc1OC(C)C)[C@H](c1ccc(Cl)cc1)N(c1ccc(C(C)(O)c3cn(C)cn3)cc1)C(=O)C2 (stereo partly shown) and test system human MDM4 protein (amino acids 2-185) (Homo sapiens, UniProt O15151), the measured log10 of IC50 is 1.92

----------
Biological target: human MDM2 protein (amino acids 2-188) (Homo sapiens, UniProt Q00987)
Construct: human MDM2 protein (amino acids 2-188); made in house
Sequence (Q00987 2-188): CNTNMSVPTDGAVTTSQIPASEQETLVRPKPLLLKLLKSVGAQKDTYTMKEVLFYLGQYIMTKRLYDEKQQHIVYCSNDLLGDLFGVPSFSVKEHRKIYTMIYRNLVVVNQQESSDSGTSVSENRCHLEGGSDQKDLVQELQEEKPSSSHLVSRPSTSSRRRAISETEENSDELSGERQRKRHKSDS
Assay: p53-MDM2 TR-FRET assay, modified (p53-MDM2 Assay 2)
Type: binding
Details: 0.1 nM MDM2, 0.1 nM Europium labeled streptavidin; read-out: IC50 (nM) of p53-Hdm2 inhibition (TR-FRET) Assay 2
measurement type: IC50 (nM)
// return numeric value only (unit: nM, not printed)

COc1cc2c(cc1OC(C)C)[C@H](c1ccc(Cl)cc1)N(c1ccc(C(C)(O)C3CC4CCCC(C3)N4C(=O)COC(C)=O)cc1)C(=O)C2 (stereo partly shown)
3.44
COc1cc2c(cc1OC(C)C)[C@H](c1ccc(Cl)cc1)N(c1ccc(C(C)(O)C3CC4CCCC(C3)S4(=O)=O)cc1)C(=O)C2 (mixture of isomers)
1.92
COc1cc2c(cc1OC(C)C)[C@H](c1ccc(Cl)cc1)N(c1ccc([C@@](C)(O)C3CCN(C=O)CC3)cc1)C(=O)C2 (single isomer, unassigned)
0.746

# input for lookup
Entry under test: COc1cc2c(cc1OC(C)C)[C@H](c1ccc(Cl)cc1)N(c1ccc([C@](C)(O)C3CC4CCCC(C3)S4(=O)=O)cc1)C(=O)C2 (stereo partly shown) . Its IC50 was 98
